Field: PBM binding z-score. Provide a value for each of the sequences that follow.
Test system: PPARg:RXRa IVT, anti-PPARg (NR concentration 270 nM, RXRa partner concentration 90 nM)
Experiment: PBM binding z-score (relative to random genomic background probes); higher = stronger binding; sequences stand for … in GC…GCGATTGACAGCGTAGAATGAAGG

Below are worked cases with known answers.
[[record]]
macromoleculesequence = "AGAACGAGGTTATACGTAGATCAGGGAAGAAAGT"
observedresult = 1.34

[[record]]
macromoleculesequence = "GCTGCTTGGTCAGGTTGGTCAGCTAACGGGTACG"
observedresult = 0.0885

[[record]]
macromoleculesequence = "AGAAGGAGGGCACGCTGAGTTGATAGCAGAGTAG"
observedresult = 4.02

[[record]]
macromoleculesequence = "ACTAGTTGGTCAGCTCAGGTCACACACAATTCGG"
observedresult = 2.1

[[record]]
macromoleculesequence = "ATCTCTAGGTAACACTCAGTTCAGTGAAGAACGC"
observedresult = 2.95


Parameter requested: PBM binding z-score. Apply to each item below.
1. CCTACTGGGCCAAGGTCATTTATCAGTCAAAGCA
2. AGAGACAGGTGATGAAGGTAACTCAGGCTATCAT
3. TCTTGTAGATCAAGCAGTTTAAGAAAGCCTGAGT
4. CGTCCAAGGTCAATGCTAGGTCCGTGAAAGCATT
5. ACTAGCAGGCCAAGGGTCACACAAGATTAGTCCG
6. CGTCCAAGGTAATAGGAGGTCAGTGAAGACAGAT
7. TCTAGCGGGCCAGAGGGTCACTCAAGAGGTACGG

Solution:
1: 4.56; 2: 0.416; 3: 0.194; 4: 3.02; 5: 4.04; 6: 1.63; 7: 0.801

List the reported PBM binding z-score of each sequence below.
1. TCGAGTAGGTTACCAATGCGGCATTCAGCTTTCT
2. GCTGCTAGCTCAGGTTGGTCAGCTAACGGGTACG

Solution:
1: 2.67; 2: -0.678

---

For each entry below, report its PBM binding z-score value.
Tested on: LXRa:RXRa (NR concentration 270 nM, RXRa partner concentration 90 nM)
Assay: PBM binding z-score (relative to random genomic background probes); higher = stronger binding; sequences stand for … in GC…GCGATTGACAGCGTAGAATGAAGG
Numbers only.

Some sequences with recorded PBM binding z-score:
[[record]]
macromoleculesequence = "TCTAGTTGGTCAAAGGACACACACTCGAAATGCG"
observedresult = 0.757

[[record]]
macromoleculesequence = "GCTAGCAGGCCATTTGGGTCACTCTATGACGGGC"
observedresult = -0.16

[[record]]
macromoleculesequence = "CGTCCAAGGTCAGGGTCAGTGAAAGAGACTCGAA"
observedresult = 3.93

[[record]]
macromoleculesequence = "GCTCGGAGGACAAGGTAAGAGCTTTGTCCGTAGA"
observedresult = -0.633


Please state, for each entry, its recorded PBM binding z-score.
1. CCTATTAGTTGACCATAAGCGCAACCGAAGCTCG
2. TCAGACAGGTGAAGGTAACTCGGGTACGCAGTCG
3. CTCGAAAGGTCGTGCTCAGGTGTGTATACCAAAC

Solution:
[0.827, 2.93, 3.78]

---

Test system: PPARa:RXRa (NR concentration 270 nM, RXRa partner concentration 90 nM)
Assay: PBM binding z-score (relative to random genomic background probes); higher = stronger binding; sequences stand for … in GC…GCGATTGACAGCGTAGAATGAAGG
# PBM binding z-score >= 2 gives yes, anything below gives no

Reference set (3 entries):
[[record]]
macromoleculesequence = "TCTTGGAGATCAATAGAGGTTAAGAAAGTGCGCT"
target = "PPARa:RXRa (NR concentration 270 nM, RXRa partner concentration 90 nM)"
labelvalue = "no"

[[record]]
macromoleculesequence = "GATACAGGGTCCAGGCCAGAGTACGCGTATTGAT"
target = "PPARa:RXRa (NR concentration 270 nM, RXRa partner concentration 90 nM)"
labelvalue = "no"

[[record]]
macromoleculesequence = "GCATATAGGTAATACATGGTGAAAGTCCGATTGT"
target = "PPARa:RXRa (NR concentration 270 nM, RXRa partner concentration 90 nM)"
labelvalue = "no"


Problem: Evaluate TAGCCTAGGTCAGATCGGGACAGTATACGCTATA : PBM binding z-score at minimum 2?
Solution: no

Problem: Kindly determine if PBM binding z-score recorded for ATTTGTAGGTTAAGGGTCATTCAGGTTGGTTCGC is above or exactly 2.
Solution: yes

Problem: Does the reported PBM binding z-score for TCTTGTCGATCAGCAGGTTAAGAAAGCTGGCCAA fall at or above the 2 mark?
Solution: no

Problem: # check: PBM binding z-score of TAGTCTAGGTCATTGGGCCAGTATAGTACGCATC is greater than or equal to 2
Solution: yes

Problem: Does PBM binding z-score meet or surpass 2 for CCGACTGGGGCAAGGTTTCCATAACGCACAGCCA ?
Solution: no

Problem: Say whether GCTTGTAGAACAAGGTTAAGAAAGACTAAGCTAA shows PBM binding z-score of 2 or more.
Solution: no

Problem: I'd appreciate it if you could say whether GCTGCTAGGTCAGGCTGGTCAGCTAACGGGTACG has PBM binding z-score at least equal to 2.
Solution: no

Problem: Item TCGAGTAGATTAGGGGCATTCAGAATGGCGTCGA with PBM binding z-score of 2 or above?
Solution: no

Problem: Please check the record CGTCCAAGGTCAGCAGGTCAGTCAAAGCGACGTG and state if its PBM binding z-score is at or above 2.
Solution: yes

Problem: Given CGTCCAAGGTCAGCAGGTCATTGAAAGCGACGTG , state whether its PBM binding z-score is at least 2.
Solution: yes
